IC50 values by entry
# Experimental system: PBP2 (Pseudomonas aeruginosa)
# Construct: gene pbpA; native full-length protein in intact P. aeruginosa PAO1 cells, Bocillin-FL labelled
# Sequence (G3XCV7 1-646): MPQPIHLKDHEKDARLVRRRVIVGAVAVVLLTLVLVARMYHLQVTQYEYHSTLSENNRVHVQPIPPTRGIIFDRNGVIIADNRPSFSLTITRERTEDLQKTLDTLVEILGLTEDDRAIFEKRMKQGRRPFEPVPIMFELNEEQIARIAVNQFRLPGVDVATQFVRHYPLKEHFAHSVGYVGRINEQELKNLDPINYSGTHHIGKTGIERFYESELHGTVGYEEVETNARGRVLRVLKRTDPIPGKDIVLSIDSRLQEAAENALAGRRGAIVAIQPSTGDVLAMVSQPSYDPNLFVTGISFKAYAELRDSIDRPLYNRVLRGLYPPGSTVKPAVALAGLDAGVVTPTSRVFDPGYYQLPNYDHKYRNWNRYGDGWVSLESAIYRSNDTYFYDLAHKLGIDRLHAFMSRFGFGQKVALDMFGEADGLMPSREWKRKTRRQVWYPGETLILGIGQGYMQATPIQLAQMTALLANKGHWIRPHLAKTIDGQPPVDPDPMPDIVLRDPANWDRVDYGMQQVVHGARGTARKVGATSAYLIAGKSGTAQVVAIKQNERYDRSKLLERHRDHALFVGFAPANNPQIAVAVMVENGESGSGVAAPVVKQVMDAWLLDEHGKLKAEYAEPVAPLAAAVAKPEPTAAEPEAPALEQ
# Assay procedure: Bocillin-FL competition in whole cells
# Type: cell-based
# Assay conditions: read-out: Drug mg/L^a / DOR / AVI; intact PAO1 cells, 30 min incubation; covalent

Compound: NC(=O)[C@@H]1CC[C@@H]2CN1C(=O)N2OS(=O)(=O)O [avibactam]
Experimental system: PBP2 (Pseudomonas aeruginosa)
IC50 (µM): 23.7

Compound: C[C@@H](O)[C@H]1C(=O)N2C(C(=O)O)=C(S[C@@H]3CN[C@H](CNS(N)(=O)=O)C3)[C@H](C)[C@H]12 [doripenem]
Experimental system: PBP2 (Pseudomonas aeruginosa)
IC50 (µM): 0.69

Data origin, for the record: paper PMC12802951
